# System: MARIMO;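 also: after 48 h exposure read by CellTiter-Glo luminescence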
# Assay explanation: cell viability relative to vehicle control; higher = less cytotoxic
# Stated conditions: 10 µM; SRSF2 genotype: SRSF2 wt/wt
Structures can show the parent of a compound that is named as a salt.
Measure: cell viability (%)
Use % as the unit, but write only the number.

[
  {
    "Compound": "O=C1C=C2C=C[C@@H](O)[C@H](O)[C@H]2O1 [Griffonilide]",
    "Scale unit": "%",
    "cell viability": 104
  },
  {
    "Compound": "CNC(=O)CN1CCC(Oc2cc3c(Nc4cccc(Cl)c4F)ncnc3cc2OC)CC1",
    "Scale unit": "%",
    "cell viability": 100
  },
  {
    "Compound": "Cc1ccccc1C(=O)Nc1ccc(C(=O)N2CCCC(N(C)C)c3ccccc32)cc1 (stereo not drawn)",
    "Scale unit": "%",
    "cell viability": 93.2
  }
]

GET /values?readout=cell viability&item= Cc1cncc(CN2CCC(=C3c4ccc(Cl)cc4CCc4cccnc43)CC2)c1 [Rupatadine Fumarate] 54.1

How about C/C(=C\C(=O)OCCCCCCCCC(=O)O)C[C@@H]1OC[C@H](C[C@@H]2O[C@H]2[C@@H](C)[C@H](C)O)[C@@H](O)[C@H]1O [Mupirocin calcium] ? 97.9

And then C=C(C)C1CC=C(C)CC1 (single isomer, unassigned; (+)) [(+)-Dipentene] , what is it? 108

Next: NC(=O)c1ccc(I)c([N+](=O)[O-])c1 81.1

Try this compound next: O=c1cc(-c2ccccc2)oc2c1ccc1ccccc12 96.5

// provenance: the supplement of paper PMC10981050
